All values here come from paper PMC4336329.

Catalogue of compounds with associated hERG current change (%, negative = inhibition) at 10uM
biological target: human ether-à-go-go-related gene (hERG) potassium channel (human, UniProt Q12809); test: primary screen, population patch clamp on CHO cells stably expressing hERG; higher = less effect of the substance;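 note: peak tail current of the secondary pulse compared with the same well before compound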
Sequence (Q12809 whole entry, looked up): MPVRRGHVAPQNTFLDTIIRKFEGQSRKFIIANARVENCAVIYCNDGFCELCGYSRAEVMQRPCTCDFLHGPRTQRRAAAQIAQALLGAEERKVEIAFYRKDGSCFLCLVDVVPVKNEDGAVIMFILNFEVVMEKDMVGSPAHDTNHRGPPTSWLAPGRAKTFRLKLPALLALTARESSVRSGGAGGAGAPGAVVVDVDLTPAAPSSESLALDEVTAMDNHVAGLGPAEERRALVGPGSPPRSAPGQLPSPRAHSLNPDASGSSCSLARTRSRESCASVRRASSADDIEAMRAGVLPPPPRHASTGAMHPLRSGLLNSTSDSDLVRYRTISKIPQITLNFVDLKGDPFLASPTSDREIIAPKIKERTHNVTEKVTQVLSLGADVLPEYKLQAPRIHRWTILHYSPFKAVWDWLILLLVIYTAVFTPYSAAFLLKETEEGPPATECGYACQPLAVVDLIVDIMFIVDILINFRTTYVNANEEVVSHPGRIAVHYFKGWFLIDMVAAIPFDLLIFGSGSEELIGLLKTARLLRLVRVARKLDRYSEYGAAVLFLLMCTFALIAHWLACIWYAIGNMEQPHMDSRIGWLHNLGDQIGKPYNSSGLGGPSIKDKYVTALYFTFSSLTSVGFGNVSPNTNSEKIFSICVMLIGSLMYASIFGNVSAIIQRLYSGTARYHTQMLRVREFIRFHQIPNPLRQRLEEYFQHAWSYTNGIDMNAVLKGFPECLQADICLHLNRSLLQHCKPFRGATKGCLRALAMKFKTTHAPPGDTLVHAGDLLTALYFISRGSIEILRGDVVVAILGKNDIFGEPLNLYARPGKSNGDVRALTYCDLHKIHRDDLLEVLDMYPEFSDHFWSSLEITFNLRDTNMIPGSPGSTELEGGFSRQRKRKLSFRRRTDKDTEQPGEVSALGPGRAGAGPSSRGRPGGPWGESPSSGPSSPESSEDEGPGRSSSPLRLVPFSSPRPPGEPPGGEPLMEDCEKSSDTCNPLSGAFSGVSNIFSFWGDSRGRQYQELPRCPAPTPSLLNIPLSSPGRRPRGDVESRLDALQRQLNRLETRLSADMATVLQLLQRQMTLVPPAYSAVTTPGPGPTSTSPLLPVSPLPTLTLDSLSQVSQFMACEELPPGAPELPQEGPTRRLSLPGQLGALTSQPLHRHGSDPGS
About 14,000 (4.5%) of roughly 310,000 compounds showed an effect of 50% or more. Effects have a minus sign here. The full list was thinned out, with strong results kept by preference.
ASSAY METRIC: hERG current change (%, negative = inhibition) at 10uM (%)

[
  {
    "COMPOUND": "CC(C)CC(C(=O)NCC1CCCO1)N(C(=O)Cn1nnc(-c2ccc(F)cc2)n1)c1cccc(C(F)(F)F)c1 (stereo not drawn)",
    "ENDPOINT RESULT": -0.701
  },
  {
    "COMPOUND": "O=C(NCc1nc2ccccc2[nH]1)C1=C[C@@H](c2ccc(Br)cc2)C[C@@H](OCCCCO)O1",
    "ENDPOINT RESULT": -65.9
  },
  {
    "COMPOUND": "CC(C)(C)c1ccccc1NC(=O)CN1C(=O)NC2(CCCC2)C1=O",
    "ENDPOINT RESULT": 1.01
  },
  {
    "COMPOUND": "O=C(NCc1ccccc1)C1=C[C@H](c2csc3ccccc23)C[C@H](OCCCCO)O1",
    "ENDPOINT RESULT": -12.5
  },
  {
    "COMPOUND": "COCCn1c(SCC(=O)NCc2ccc3c(c2)OCO3)nc2ccccc2c1=O",
    "ENDPOINT RESULT": -42.4
  },
  {
    "COMPOUND": "CS(=O)(=O)O.Cc1ccc(N(CC2=NCCN2)c2cccc(O)c2)cc1",
    "ENDPOINT RESULT": -51.2
  },
  {
    "COMPOUND": "CCc1ccccc1NC(=O)COc1ccc2c(c1)OCO2",
    "ENDPOINT RESULT": -4.6
  },
  {
    "COMPOUND": "COc1ccc(N/C(N)=N/c2nc(CSc3ccc(Cl)cc3)cc(=O)[nH]2)cc1",
    "ENDPOINT RESULT": 17.5
  },
  {
    "COMPOUND": "Cc1cc(NC(=O)CSc2nc(C3CCCCC3)nc3ccccc23)no1",
    "ENDPOINT RESULT": 18.9
  },
  {
    "COMPOUND": "Cc1ccc(C(=O)COC(=O)CNC(=O)Cc2ccccc2)cc1",
    "ENDPOINT RESULT": -2.44
  },
  {
    "COMPOUND": "Cc1ccc(N(CC2=NCCN2)c2cccc(O)c2)cc1.Cl",
    "ENDPOINT RESULT": -58.3
  },
  {
    "COMPOUND": "Cc1cccc(OCC(=O)NCC(=O)N/N=C/c2ccc(N(C)C)cc2)c1",
    "ENDPOINT RESULT": 0.0886
  }
]

---

Biological target: human ether-à-go-go-related gene (hERG) potassium channel (human, UniProt Q12809);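 note: peak tail current of the secondary pulse compared with the same well before compound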
Experiment: primary screen, population patch clamp on CHO cells stably expressing hERG; higher = less effect of the substance
Protocol: Briefly, Chinese hamster ovary (CHO) cells stably expressing the hERG channel were dislodged from tissue culture flasks and dispensed into PPC plates. […] During the recording, background leak currents were estimated by a 100 ms step to -80 mV from an initial holding potential of -70 mV and subtracted from the subsequent current measurement. The campaign was conducted in two phases using slight differences in recording protocol. […]
The whole screen tested about 310,000 compounds, of which about 14,000 (4.5%) showed an effect of 50% or more. The effect is printed as a negative number. Only a selection was taken, and strong results are over-represented in it overall.
# hERG current change (%, negative = inhibition) at 10uM binned as range A = under -40%, range B = from -40% up to -10%, range C = -10% and over

[
  {
    "MOLECULE": "CCC(C)n1c(=N)c(C#N)cc2c(=O)n3cc(C)ccc3nc21 (stereo not shown)",
    "GROUP": "range A"
  },
  {
    "MOLECULE": "CC1CC(C)CN(CCCNC(=O)c2nn(C)c3c2CS(=O)(=O)c2ccccc2-3)C1 (stereo not shown)",
    "GROUP": "range A"
  },
  {
    "MOLECULE": "CCC(=O)N1CCN(c2nnc(-c3ccccc3)c3ccccc23)CC1",
    "GROUP": "range B"
  },
  {
    "MOLECULE": "CC(NC(=O)COC(=O)c1ccc(CO)cc1)C1CC2CCC1C2 (stereo not shown)",
    "GROUP": "range C"
  },
  {
    "MOLECULE": "Cn1c(=O)n(CC(=O)N2CCN(c3nnc(-c4ccccc4)c4ccccc34)CC2)c2ccccc21",
    "GROUP": "range A"
  },
  {
    "MOLECULE": "O=c1c2ccccc2nc2c3ccccc3c(NCc3ccco3)nn12",
    "GROUP": "range B"
  },
  {
    "MOLECULE": "COC(=O)c1ccc(CSc2nnc(CS(=O)Cc3ccc(Br)cc3)n2-c2ccccc2)cc1 (stereo not shown)",
    "GROUP": "range B"
  },
  {
    "MOLECULE": "Cc1cnc(NC(=O)CSC(=S)N2CCOCC2)s1",
    "GROUP": "range C"
  },
  {
    "MOLECULE": "COc1cc(OC)c2ccc(=O)oc2c1C(CC(=O)N1CCOCC1)c1ccc2c(c1)OCO2 (stereo not shown)",
    "GROUP": "range C"
  }
]
